These entries and their values trace back to ChEMBL document CHEMBL2412957.

Quick list: half-life per entry.
# Experimental Details: Half life in rat at 5 umol/kg, iv and 5 umol/kg, po
# Type: ADME, organism-based
# Assay Setup: in vivo
Lab book: enter the figure in h, no units written.

Would you please look over these solved cases?
Smiles Str	Assay Value
CN[C@@H](CC(C)C)C(=O)N[C@@H]1CC[C@H]2CN(S(=O)(=O)c3ccc(C(F)(F)F)cc3)C[C@H]21	2.1
CN[C@@H](CC(C)C)C(=O)N[C@H]1CC[C@@H]2CN(c3ccc(C(F)(F)F)cc3)C[C@@H]21	15.4

Next compound, please.
Ask | Fill in: half-life of `CN[C@@H](CC(C)C)C(=O)N[C@H]1CC[C@@H]2CN(S(=O)(=O)c3ccc(C(F)(F)F)cc3)C[C@@H]21` is ___
Reply | 3.3
